- System: HeLa Kyoto
- measurement-notes: solubility change mitosis vs G1/S (difference of NP-40 vs SDS log2 ratios) (log2 ratio difference); higher = more soluble in mitosis
Decide using solubility change mitosis (log2): a value greater than or equal to -0.08 is satisfied, a smaller one is not satisfied.

MKDPSRSSTSPSIINEDVIINGHSHEDDNPFAEYMWMENEEEFNRQIEEELWEEEFIERCFQEMLEEEEEHEWFIPARDLPQTMDQIQDQFNDLVISDGSSLEDLVVKSNLNPNAKEFVPGVKYGNI [PAIP2]	not satisfied
MDGDGDPESVGQPEEASPEEQPEEASAEEERPEDQQEEEAAAAAAYLDELPEPLLLRVLAALPAAELVQACRLVCLRWKELVDGAPLWLLKCQQEGLVPEGGVEEERDHWQQFYFLSKRRRNLLRNPCGEEDLEGWCDVEHGGDGWRVEELPGDSGVEFTHDESVKKYFASSFEWCRKAQVIDLQAEGYWEELLDTTQPAIVVKDWYSGRSDAGCLYELTVKLLSEHENVLAEFSSGQVAVPQDSDGGGWMEISHTFTDYGPGVRFVRFEHGGQDSVYWKGWFGARVTNSSVWVEP [FBXO2]	not satisfied
MFKVIQRSVGPASLSLLTFKVYAAPKKDSPPKNSVKVDELSLYSVPEGQSKYVEEARSQLEESISQLRHYCEPYTTWCQETYSQTKPKMQSLVQWGLDSYDYLQNAPPGFFPRLGVIGFAGLIGLLLARGSKIKKLVYPPGFMGLAASLYYPQQAIVFAQVSGERLYDWGLRGYIVIEDLWKENFQKPGNVKNSPGTK [APOO]	satisfied
MTELQSALLLRRQLAELNKNPVEGFSAGLIDDNDLYRWEVLIIGPPDTLYEGGVFKAHLTFPKDYPLRPPKMKFITEIWHPNVDKNGDVCISILHEPGEDKYGYEKPEERWLPIHTVETIMISVISMLADPNGDSPANVDAAKEWREDRNGEFKRKVARCVRKSQETAFE [UBE2G1]	satisfied
MCDQQKQPQFPPSCVKGSGLGAGQGSNGASVKCPVPCQTQTVCVTGPAPCPTQTYVKYQVPCQTQTYVKCPAPCQRTYVKYPTPCQTYVKCPAPCQTTYVKCPTPCQTYVKCPAPCQMTYIKSPAPCQTQTCYVQGASPCQSYYVQAPASGSTSQYCVTDPCSAPCSTSYCCLAPRTFGVSPLRRWIQRPQNCNTGSSGCCENSGSSGCCGSGGCGCSCGCGSSGCCCLGIIPMRSRGPACCDHEDDCCC [XP32]	satisfied

Note: attention shifts to another entry.
query: Is the recorded value of solubility change mitosis (log2) equal to or greater than -0.08 for this sequence? MLRAGWLRGAAALALLLAARVVAAFEPITVGLAIGAASAITGYLSYNDIYCRFAECCREERPLNASALKLDLEEKLFGQHLATEVIFKALTGFRNNKNPKKPLTLSLHGWAGTGKNFVSQIVAENLHPKGLKSNFVHLFVSTLHFPHEQKIKLYQDQLQKWIRGNVSACANSVFIFDEMDKLHPGIIDAIKPFLDYYEQVDGVSYRKAIFIFLSNAGGDLITKTALDFWRAGRKREDIQLKDLEPVLSVGVFNNKHSGLWHSGLIDKNLIDYFIPFLPLEYRHVKMCVRAEMRARGSAIDEDIVTRVAEEMTFFPRDEKIYSDKGCKTVQSRLDFH [TOR1B]
result: not satisfied

---

- Test system: HeLa Kyoto
- measurement-notes: solubility in G1/S (NP-40 vs SDS abundance) (log2 ratio); higher = more soluble
- measurement-parameters: cell cycle stage: G1/S
measure-name: solubility in G1/S (log2)
Give your answer as a number; write no unit.

Given item MEKTLETVPLERKKREKEQFRKLFIGGLSFETTEESLRNYYEQWGKLTDCVVMRDPASKRSRGFGFVTFSSMAEVDAAMAARPHSIDGRVVEPKRAVAREESGKPGAHVTVKKLFVGGIKEDTEEHHLRDYFEEYGKIDTIEIITDRQSGKKRGFGFVTFDDHDPVDKIVLQKYHTINGHNAEVRKALSRQEMQEVQSSRSGRGGNFGFGDSRGGGGNFGPGPGSNFRGGSDGYGSGRGFGDGYNGYGGGPGGGNFGGSPGYGGGRGGYGGGGPGYGNQGGGYGGGYDNYGGGNYGSGNYNDFGNYNQQPSNYGPMKSGNFGGSRNMGGPYGGGNYGPGGSGGSGGYGGRSRY [HNRNPA2B1] , the value recorded as its solubility in G1/S (log2) is -0.087

---

- System: HeLa Kyoto
- measurement-notes: thermal stability score vs G1/S (z-score of summed log2 fold changes over temperatures); higher = more thermally stable than in G1/S
- measurement-parameters: cell cycle stage: mitosis
measure-name: thermal stability score
Give your answer as a number; write no unit.

Given item MSPRRTLPRPLSLCLSLCLCLCLAAALGSAQSGSCRDKKNCKVVFSQQELRKRLTPLQYHVTQEKGTESAFEGEYTHHKDPGIYKCVVCGTPLFKSETKFDSGSGWPSFHDVINSEAITFTDDFSYGMHRVETSCSQCGAHLGHIFDDGPRPTGKRYCINSAALSFTPADSSGTAEGGSGVASPAQADKAEL [MSRB3] , the value recorded as its thermal stability score is -0.886

Given item MAAARHSTLDFMLGAKADGETILKGLQSIFQEQGMAESVHTWQDHGYLATYTNKNGSFANLRIYPHGLVLLDLQSYDGDAQGKEEIDSILNKVEERMKELSQDSTGRVKRLPPIVRGGAIDRYWPTADGRLVEYDIDEVVYDEDSPYQNIKILHSKQFGNILILSGDVNLAESDLAYTRAIMGSGKEDYTGKDVLILGGGDGGILCEIVKLKPKMVTMVEIDQMVIDGCKKYMRKTCGDVLDNLKGDCYQVLIEDCIPVLKRYAKEGREFDYVINDLTAVPISTSPEEDSTWEFLRLILDLSMKVLKQDGKYFTQGNCVNLTEALSLYEEQLGRLYCPVEFSKEIVCVPSYLELWVFYTVWKKAKP [SMS] , the value recorded as its thermal stability score is -1.47

Given item MAGMVDFQDEEQVKSFLENMEVECNYHCYHEKDPDGCYRLVDYLEGIRKNFDEAAKVLKFNCEENQHSDSCYKLGAYYVTGKGGLTQDLKAAARCFLMACEKPGKKSIAACHNVGLLAHDGQVNEDGQPDLGKARDYYTRACDGGYTSSCFNLSAMFLQGAPGFPKDMDLACKYSMKACDLGHIWACANASRMYKLGDGVDKDEAKAEVLKNRAQQLHKEQQKGVQPLTFG [COA7] , the value recorded as its thermal stability score is -1.97

Given item MTLESIMACCLSEEAKEARRINDEIERQLRRDKRDARRELKLLLLGTGESGKSTFIKQMRIIHGSGYSDEDKRGFTKLVYQNIFTAMQAMIRAMDTLKIPYKYEHNKAHAQLVREVDVEKVSAFENPYVDAIKSLWNDPGIQECYDRRREYQLSDSTKYYLNDLDRVADPAYLPTQQDVLRVRVPTTGIIEYPFDLQSVIFRMVDVGGQRSERRKWIHCFENVTSIMFLVALSEYDQVLVESDNENRMEESKALFRTIITYPWFQNSSVILFLNKKDLLEEKIMYSHLVDYFPEYDGPQRDAQAAREFILKMFVDLNPDSDKIIYSHFTCATDTENIRFVFAAVKDTILQLNLKEYNLV [GNAQ] , the value recorded as its thermal stability score is -0.236

Given item MVAPVWYLVAAALLVGFILFLTRSRGRAASAGQEPLHNEELAGAGRVAQPGPLEPEEPRAGGRPRRRRDLGSRLQAQRRAQRVAWAEADENEEEAVILAQEEEGVEKPAETHLSGKIGAKKLRKLEEKQARKAQREAEEAEREERKRLESQREAEWKKEEERLRLEEEQKEEEERKAREEQAQREHEEYLKLKEAFVVEEEGVGETMTEEQSQSFLTEFINYIKQSKVVLLEDLASQVGLRTQDTINRIQDLLAEGTITGVIDDRGKFIYITPEELAAVANFIRQRGRVSIAELAQASNSLIAWGRESPAQAPA [DDRGK1] , the value recorded as its thermal stability score is -0.701

Given item MAAAVPQRAWTVEQLRSEQLPKKDIIKFLQEHGSDSFLAEHKLLGNIKNVAKTANKDHLVTAYNHLFETKRFKGTESISKVSEQVKNVKLNEDKPKETKSEETLDEGPPKYTKSVLKKGDKTNFPKKGDVVHCWYTGTLQDGTVFDTNIQTSAKKKKNAKPLSFKVGVGKVIRGWDEALLTMSKGEKARLEIEPEWAYGKKGQPDAKIPPNAKLTFEVELVDID [FKBP3] , the value recorded as its thermal stability score is -2.71

Given item MGSQVSVESGALHVVIVGGGFGGIAAASQLQALNVPFMLVDMKDSFHHNVAALRASVETGFAKKTFISYSVTFKDNFRQGLVVGIDLKNQMVLLQGGEALPFSHLILATGSTGPFPGKFNEVSSQQAAIQAYEDMVRQVQRSRFIVVVGGGSAGVEMAAEIKTEYPEKEVTLIHSQVALADKELLPSVRQEVKEILLRKGVQLLLSERVSNLEELPLNEYREYIKVQTDKGTEVATNLVILCTGIKINSSAYRKAFESRLASSGALRVNEHLQVEGHSNVYAIGDCADVRTPKMAYLAGLHANIAVANIVNSVKQRPLQAYKPGALTFLLSMGRNDGVGQISGFYVGRLMVRLTKSRDLFVSTSWKTMRQSPP [AIFM2] , the value recorded as its thermal stability score is -2.26

Given item MFLTRSEYDRGVNTFSPEGRLFQVEYAIEAIKLGSTAIGIQTSEGVCLAVEKRITSPLMEPSSIEKIVEIDAHIGCAMSGLIADAKTLIDKARVETQNHWFTYNETMTVESVTQAVSNLALQFGEEDADPGAMSRPFGVALLFGGVDEKGPQLFHMDPSGTFVQCDARAIGSASEGAQSSLQEVYHKSMTLKEAIKSSLIILKQVMEEKLNATNIELATVQPGQNFHMFTKEELEEVIKDI [PSMA5] , the value recorded as its thermal stability score is 2.76
